# System: HOP-92
# procedureDetails: NCI tumour cell line growth inhibition, 48 h
Active and inactive are the calls of the source. Rule as the data show it: active = GI50 up to about 1.1 µM and inactive = higher.
Labels: class 1 for active, class 0 for inactive

O=C1C2C=CC1C1C(=O)OC(=O)C21 (configuration not stated): class 0
Sc1nnc(COc2ccc(Cl)cc2)[nH]1: class 0
COC(=O)c1cc(OC(C)=O)c2c(OC)ccc(OC)c2c1: class 0
Cc1c2cccc-2ccc2c3ccccc3n(C(=O)c3ccc(Cl)cc3)c12: class 0
c1ccc(/C(=N/Nc2ccccn2)c2cccnn2)cc1: class 0
CNS(=O)(=O)c1ccccc1C(=N)c1ccccc1: class 0
ClCc1nc2ccccc2[nH]1: class 0
CCCCCCCCCCCCCCCCCC(=O)NCCCNCCCNC(=O)CCCCCCCCCCCCCCCCC: class 0
N#CC(C#N)=C1C(=O)NC(N)=C1C#N: class 0
[N-]=[N+]=NC1CC(n2cc(COCC(F)(F)F)c(=O)[nH]c2=O)OC1CO (configuration not stated): class 0
CCc1nc2ccc(NCCN(C)C)c3c(=O)c4ccccc4n1c23: class 1
CCCN(CCCc1ccccc1)CCc1ccc2[nH]c(=S)[nH]c2c1: class 0
